Source listed as the supplement of paper PMC9170038.

System: K4 kissing-loop RNA reporter;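 further: bound reporter read as fluorescence of individual clusters on recovered sequencing chips by microscopy, with normalized cluster intensities fitted with a binding model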
Assay: apparent KD of K4 kissing-loop reporter; higher = weaker reporter binding
Details: Eterna round: R107; input ligand: theophylline 20 uM
apparent KD of K4 kissing-loop reporter below 300 nM gives Not met; apparent KD of K4 kissing-loop reporter at or above it gives Met.

UUUAUAAUGUCGGCCGCCACUGGAUUAAUAUUUGUAUAAUCUAGUUCAAAGUGAUGUUUUGAGUCCAGGACCGGGACAUUUGUUA [JR_ExcTryptoB_Sub003] | Met
UAACUUGCAGUGAUGUUGCAAGAACUGGAUACCAGCAUGGAAACAUGCCCUUGGCAGCCAGAAGGUAUCCUACAUCACAGAUACU [Design2] | Not met
CGCAGUGAUGUUGCGAGUAGAUACAGGGAAGGAGCGCGGUAGUACGCAGGUAGGUCGCCCACGCAGUGAUGUUGCGUCAUAGGGU [Exclusion Arginine A GF6] | Not met
GCAGACCGCAGUGAUGUUGCGAAAUCGGAAGGAGCGCGUGAAAACGCAGGUAGGUCGCCGACACAGGGAUUAUAACCCUGUUUGC [Arginine A K4 16] | Not met
UAUAAUUCGGCGGCCGCCACUGACCAUAGCCUUCGAUGGCCAGUGAUGUUGGCCUCUGGCUCUAACAGGACCGGGCCGAAUUGUG [Reresoza] | Not met
GACAUAUUCCAGGAUACCAGUGAUCCGCCGCAGCCGAAGACUAGUGAUGUUAGUUUCUGUCACCCUUGGCAGCCUCGAGUCUAAU [theeternabot_sameState_KL_Theo_B_15] | Met
UUCUUGAUGGAAACAUCGAGAAUUACUGAUACCAGUAUCGAUAGAUACCCUUGGCAGCAGAAUCAGUAAUAACGAGUGAUGUUCG [Ex Theophylline A K4 4] | Met
AGUUCUUGCCGAAGGAGCGAGGCAGAGUGAUGUUCUGCAGAGGUCGAAAGACCUCAACUGCCUCAGGUAGGUCGCGGCAUGAACA [Omei KL Arginine B Exc A v6] | Met
ACAUCGGUUGAGAGUGAUGUUCCUUGUGUUCGAGGACCGGUACGGCCGCCACUCGGGUAGAAAAUAACAGAUGUGUUUCAUUUUU [BDazzled - #17 SS Tryptophan A] | Not met
AUUUAAUUAACUGAUACCAGACUUUUUGUUUUGAUAAUUACUAGUGAUGUUAGUGUUUCUGUCCCUUGGCAGCAGAAUCUACUUA [JR_ExcTheophyB_Sub018] | Met
CGUGCCCAGCCGGAUACCAGUGACCCGCUGGGAACCGCGGGCCCAGAGUGAUGUUCGGGACACCCUUGGCAGCCGCCUGGGCGGU [#2 Same State - Theophylline B Attempt #11 (HarryS)] | Met
ACGAAAUGCGACUCCUAGUUACACCGGGAAGGAGCGCGGAUAACCGCAGGUAGGUCGCCCGGAAGCCGGACCAGUGAUGUUGGUC [Exclusion Arginine A Gf 27] | Not met
AUUUGUUUAUGUGAUACCAGACUAAGCAGUGAUGUUGCUUUUAUUUUUGAAUUUUAAAUAGUCCCUUGGCAGCACUAUGUAUUUA [JR_SSTheophyB_Sub010] | Not met
AAAGAUCUUCUAGAAACUAGAAGAUCAAGAGAGGAUAUCCGAAUUCGGAGAAGGCUCGCUAAGUGAUGUUUGGACCCAAAGGGAA [AK3.1 SS FMN A] | Met
AAGAGCUAGGCGGCCGCCACUAGUUGUGAACACGUACAAGCCAGUGAUGUUGGUAUGAUGGACGGUAGGACCGGGCCUAGCUGAA [Exclusion - Tryptophan B (Freestyle 14)] | Not met
ACGACUGGAUGAAUAACAUCUAGUCGAGAUCGAGGACCGGUACGGCCGCCACUCGAGCUAACUGCGAGUGAUGUUCGAUAAUAAA [#OpenEnded 2] | Not met
AAGGUCACCACUACAGUGAUGUUGUAGGAGCAGGAUAUGCAGAAAUGCAGAAGGGCUCGCUCCAGGUGACCGAAUGAAACAUUCA [Omei KL FMN A SS A v4] | Met
UAGCAUUUGCUCGAGUGAUGUUCGAGCGAAGGAGCGCGAGAAAUCGCAGGUAGGUCGCGCUCGAACUAUGAGCGAUCAUUUAUUG [Arg A Ex t2d] | Met
AAUGUGCAGGGAAGGAGCGUAGUCCAGUGAUGUUGGAGUUAAAUACCAGUGAUGUUGGUUAUACAGGUAGGUCGCCCUAAAGCGC [Exclusion Arginine B Gf 5] | Not met
UGUCAUGGAAACAUGAACGUUGAAAUAUGACGAGGACCGGUACGGCCGCCACUCGAGUAAUGGUCAGUGAUGUUGACUGGAUUAA [KL-SSTryp-A form1 sub5 #split stat1] | Not met
UUUUUGGAGAAUUAUAGUGAUGUUAUGAAGGAGGAUAUCUAAAGAUGGAGAAGGUUUAAUAGUUAAGGGAUGGAGGGUGGGUGGG [ExFMNA.Q] | Not met
AAGUCUCGUUAAUUCGAGGUUGCGAUCGAUACCAGUAGCGAGAGGUACCCUUGGCAGCGAAGUGAGUGAUGUUCAUGAAAGAAGA [KL-XTheoA13] | Not met
GGAUAGGAAAGAGGAUAUGGGCUAGGCAAGAAUAACUUGUCUAGCAAAUCCAUGAGGAGUGAUGUUCCAGAAGGCUUUCCUAUCG [FmnBX 1 A9+U77] | Not met
